Tested on: Rattus norvegicus
assay_info: In vivo for its ability to inhibit delayed type hypersensitivity in rat following 10 mg/kg administration.
Task for the reader: assign each of the following compounds its reported inhibition in vivo at 10 mg/kg.
Your answer is read as %, so omit the unit and give the number.

In: # input compound: N#C/C(C(=O)Nc1ccc(C(F)(F)F)cc1)=C(/O)c1ccc(C(F)(F)F)cc1 ; wanted: its inhibition in vivo at 10 mg/kg
Out: 16

In: Quick check: inhibition in vivo at 10 mg/kg of CCc1cc(NC(=O)/C(C#N)=C(\O)C2CC2)ccc1C(F)(F)F ?
Out: 74

In: What does the record list as inhibition in vivo at 10 mg/kg for Cc1cc(Cl)ccc1NC(=O)/C(C#N)=C(\O)C1CC1 ?
Out: 30

In: Data request, read-out inhibition in vivo at 10 mg/kg, for N#C/C(C(=O)Nc1ccc(C(F)(F)F)cc1)=C(/O)C1CC1
Out: 53

In: I am curious: what inhibition in vivo at 10 mg/kg value has been reported for N#C/C(C(=O)Nc1ccc(C(=O)c2ccc(Cl)cc2)cc1)=C(/O)C1CC1 ?
Out: -19

---

Tested on: Mus musculus
assay_info: In vivo ability to inhibit delayed type hypersensitivity in mouse at a concentration of 100 mg/kg
Assay type: functional
experimental_readout: inhibition in vivo at 100 mg/kg (%)
Supply the numeric figure in %, leaving out any unit text.

In: What inhibition in vivo at 100 mg/kg appears in the records for this compound with Mus musculus? N#C/C(C(=O)Nc1ccc(O)cc1)=C(/O)C1CC1
Out: -11

In: Look up inhibition in vivo at 100 mg/kg with Mus musculus for this compound: N#C/C(C(=O)Nc1ccc(N)cc1)=C(/O)C1CC1
Out: 32

In: // lookup inhibition in vivo at 100 mg/kg | system=Mus musculus | key= N#C/C(C(=O)Nc1ccc(C(=O)O)cc1)=C(/O)C1CC1
Out: -6

In: Record COC(=O)c1ccc(NC(=O)/C(C#N)=C(\O)C2CC2)cc1 : what is its inhibition in vivo at 100 mg/kg with Mus musculus?
Out: 34

In: Enter reported inhibition in vivo at 100 mg/kg observed with Mus musculus for N#C/C(C(=O)Nc1ccc(C(F)(F)F)cc1)=C(/O)C1CCOC1 (stereo unspecified)
Out: 29

In: Give the reported inhibition in vivo at 100 mg/kg for N#C/C(C(=O)Nc1ccc(-c2ccco2)cc1)=C(/O)C1CC1 (system: Mus musculus).
Out: -13

---

assay_info: t1/2 in rat plasma after oral dose (10 mg/kg)
Type: ADME, organism-based
experimental_readout: half-life (h)
The figure you give is taken to be in h; do not add the unit.

In: Using the record for C=CC/C(O)=C(\C#N)C(=O)Nc1ccc(C(F)(F)F)cc1 , report its half-life.
Out: 4

In: May I ask what half-life has been recorded for N#C/C(C(=O)Nc1ccc(C(F)(F)F)cc1)=C(/O)C1CC1 ?
Out: 8

In: Dear colleague, I am looking for the recorded half-life of the following compound: N#C/C(C(=O)Nc1cccc(Cl)c1)=C(/O)C1CC1
Out: 3

In: // returns reported half-life for input N#C/C(C(=O)Nc1ccc([S+]([O-])C(F)(F)F)cc1)=C(/O)C1CC1 (stereo unspecified)
Out: 3

In: I have this compound here, Cc1cc(NC(=O)/C(C#N)=C(\O)C2CC2)ccc1C#N , and I need its recorded half-life.
Out: 6

In: May I ask what half-life has been recorded for C=C(C)/C(O)=C(\C#N)C(=O)Nc1ccc(C(F)(F)F)cc1 ?
Out: 7

In: Given the entry N#C/C(C(=O)Nc1ccc(SC(F)(F)F)cc1)=C(/O)C1CC1 , report its measured half-life.
Out: 2

In: Suppose we examine the compound N#C/C(C(=O)Nc1ccc(Br)cn1)=C(/O)C1CC1 ; what half-life value has been reported?
Out: 13

In: Requested field: half-life. Item: N#C/C(C(=O)Nc1ccc(C(F)(F)F)cn1)=C(/O)C1CC1
Out: 7

In: Suppose we examine the compound CC(=O)c1ccc(NC(=O)/C(C#N)=C(\O)C2CC2)cc1 ; what half-life value has been reported?
Out: 6

In: Looking for the measured half-life of N#C/C(C(=O)Nc1ccc(C#N)cc1)=C(/O)C1CC1 , can you help?
Out: 5

---

Task for the reader: assign each of the following molecules its reported IC50.
# unit: µM | format: bare number

In: Test system Dihydroorotate dehydrogenase (quinone), mitochondrial (Rattus norvegicus, UniProt Q63707); read-out IC50; what value for Cc1cc(NC(=O)/C(C#N)=C(\O)C2CC2)ccc1C(F)(F)F ?
Out: 0.014

In: Identify the measured IC50 of N#C/C(C(=O)Nc1ccc(OC(F)(F)F)cc1)=C(/O)C1CC1 for Dihydroorotate dehydrogenase (quinone), mitochondrial (Rattus norvegicus, UniProt Q63707).
Out: 0.005

In: Form field: IC50 recorded for N#C/C(C(=O)Nc1ccc(C(=O)O)cc1)=C(/O)C1CC1 with Dihydroorotate dehydrogenase (quinone), mitochondrial (Rattus norvegicus, UniProt Q63707) (enter value)
Out: 1.48

In: What is its IC50 for Dihydroorotate dehydrogenase (quinone), mitochondrial (Rattus norvegicus, UniProt Q63707)? Entry: N#C/C(C(=O)Nc1ccc(Br)cn1)=C(/O)C1CC1
Out: 0.037

In: Reported IC50 for Dihydroorotate dehydrogenase (quinone), mitochondrial (Rattus norvegicus, UniProt Q63707), given N#C/C(C(=O)Nc1ccc(S(=O)(=O)C(F)(F)F)cc1)=C(/O)C1CC1 ?
Out: 0.003

In: Provide the documented IC50 with Dihydroorotate dehydrogenase (quinone), mitochondrial (Rattus norvegicus, UniProt Q63707) as the system for Cc1cc(NC(=O)/C(C#N)=C(\O)C2CC2)ccc1C#N
Sequence (Q63707 whole entry): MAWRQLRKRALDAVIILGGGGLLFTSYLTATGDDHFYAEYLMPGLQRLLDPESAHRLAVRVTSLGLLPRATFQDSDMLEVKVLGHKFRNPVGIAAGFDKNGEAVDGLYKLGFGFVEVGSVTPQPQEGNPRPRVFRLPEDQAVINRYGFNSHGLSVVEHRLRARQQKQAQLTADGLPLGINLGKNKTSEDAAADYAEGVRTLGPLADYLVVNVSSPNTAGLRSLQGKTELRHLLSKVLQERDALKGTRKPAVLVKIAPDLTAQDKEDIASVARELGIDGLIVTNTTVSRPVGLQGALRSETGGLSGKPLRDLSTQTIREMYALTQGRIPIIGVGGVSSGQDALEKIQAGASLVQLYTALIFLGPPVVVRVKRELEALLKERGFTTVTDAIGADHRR
Out: 0.028

In: Under Dihydroorotate dehydrogenase (quinone), mitochondrial (Rattus norvegicus, UniProt Q63707): IC50 value of N#C/C(C(=O)Nc1ccc(C(F)(F)F)cc1)=C(/O)C1CCOC1 (stereo unspecified) ?
Out: 17.8

In: Param readout= IC50; system= Dihydroorotate dehydrogenase (quinone), mitochondrial (Rattus norvegicus, UniProt Q63707); entry= Cc1cc(NC(=O)/C(C#N)=C(\O)C2CC2)ccc1Cl ; returns value.
Out: 0.033

In: For the record C=CC/C(O)=C(\C#N)C(=O)Nc1ccc(C(F)(F)F)cc1 , what value of IC50 is listed for Dihydroorotate dehydrogenase (quinone), mitochondrial (Rattus norvegicus, UniProt Q63707)?
Out: 0.107

In: GET /values?readout=IC50&system=Dihydroorotate dehydrogenase (quinone), mitochondrial (Rattus norvegicus, UniProt Q63707)&item= N#C/C(C(=O)Nc1ccc(Oc2ccccc2)cc1)=C(/O)C1CC1
Out: 0.29

In: For the record CC(=O)c1ccc(NC(=O)/C(C#N)=C(\O)C2CC2)cc1 , what value of IC50 is listed for Dihydroorotate dehydrogenase (quinone), mitochondrial (Rattus norvegicus, UniProt Q63707)?
Out: 0.068

---

Tested on: Rattus norvegicus
assay_info: In vivo ability to inhibit delayed type hypersensitivity in rat at a concentration of 50 mg/kg
Assay type: functional
experimental_readout: inhibition in vivo at 50 mg/kg (%)
Enter your answer as a number in %; do not include the unit.

In: Lab request: please report inhibition in vivo at 50 mg/kg under test system Rattus norvegicus for Cc1cc(NC(=O)/C(C#N)=C(\O)C2CC2)ccc1Br
Out: 66

In: Hi! What's the reported inhibition in vivo at 50 mg/kg for N#C/C(C(=O)Nc1ccc(C(F)(F)F)cc1)=C(/O)C1CCCN1 (stereo not drawn) on Rattus norvegicus?
Out: -16

In: Return inhibition in vivo at 50 mg/kg measured with Rattus norvegicus given this compound: N#C/C(C(=O)Nc1ccc(C(F)(F)F)cc1)=C(/O)C1CCCO1 (stereo not drawn)
Out: 11

In: Please tell me: inhibition in vivo at 50 mg/kg of N#C/C(C(=O)Nc1ccc(C(=O)O)cc1)=C(/O)C1CC1 , system Rattus norvegicus?
Out: 39

In: Kindly state the measured inhibition in vivo at 50 mg/kg obtained for N#C/C(C(=O)Nc1ccc(C(F)(F)F)cc1)=C(/O)C1CCCC1 with Rattus norvegicus.
Out: 19

In: Short answer please: inhibition in vivo at 50 mg/kg, Rattus norvegicus, entry N#C/C(C(=O)Nc1ccc(C(F)(F)F)cc1)=C(/O)C1CCOC1 (stereo not drawn)
Out: 14

In: // map N#C/C(C(=O)Nc1ccc(-c2ccccc2)cc1)=C(/O)C1CC1 to recorded inhibition in vivo at 50 mg/kg (system: Rattus norvegicus)
Out: 70

In: Checklist item: inhibition in vivo at 50 mg/kg tested on Rattus norvegicus, entry N#C/C(C(=O)Nc1ccncc1)=C(/O)C1CC1 , value?
Out: 17

In: Missing value: inhibition in vivo at 50 mg/kg, Rattus norvegicus, entry N#C/C(C(=O)Nc1ccc(C(N)=O)cc1)=C(/O)C1CC1 . Fill in?
Out: 20

In: Observed inhibition in vivo at 50 mg/kg on Rattus norvegicus for N#C/C(C(=O)Nc1ccc(C(F)(F)F)cc1)=C(/O)C1CCC1 , please.
Out: 1

In: For the record CN(C(=O)c1ccc(NC(=O)/C(C#N)=C(\O)C2CC2)cc1)c1ccc(Cl)cc1 , what value of inhibition in vivo at 50 mg/kg is listed for Rattus norvegicus?
Out: 22

In: # value lookup — system Rattus norvegicus, readout inhibition in vivo at 50 mg/kg, item N#C/C(C(=O)Nc1ccc(-c2ncco2)cc1)=C(/O)C1CC1
Out: 42

In: Missing value: inhibition in vivo at 50 mg/kg, Rattus norvegicus, entry Cc1ccc(NC(=O)/C(C#N)=C(\O)C2CC2)cc1Cl . Fill in?
Out: 31
